half-life values by entry
- Assay Method Text: in vivo
- Experimental Parameters: female, CD1, mouse, po, 10 mg/kg

# Compound, half-life / h
measured = [
    ("CCc1c(N2CCN(C(=O)c3ncnc(C)c3O)CC2)c(=O)n2nc(-c3cc4c(s3)COC4)nc2n1CC(=O)Nc1ccc(C(F)(F)F)c2ccoc12", 1.4),
    ("CCc1c(N2CCN(C(=O)c3ncccc3O)CC2)c(=O)n2nc(-c3ccc(CO)s3)nc2n1CC(=O)Nc1ccc(C(F)(F)F)cc1Cl", 1.4),
    ("CCc1c(N2CCN(C(=O)c3ncccc3O)CC2)c(=O)n2nc(-c3cccnc3)nc2n1CC(=O)Nc1ccc(C(F)(F)F)cc1C [A1, reference compound]", 1.4),
    ("CCc1c(N2CCN(C(=O)c3ncnc(C)c3O)CC2)c(=O)n2nc(-c3cc4c(s3)COC4)nc2n1CC(=O)Nc1ccc(Br)c2ccoc12", 1.3),
]

// provenance: patent US20260217732A1
